- test_target: MMP-2 (Homo sapiens, UniProt P08253)
- Construct: made in house; provided by Dr. Gregory Goldberg, Washington University
- Sequence (P08253 110-660): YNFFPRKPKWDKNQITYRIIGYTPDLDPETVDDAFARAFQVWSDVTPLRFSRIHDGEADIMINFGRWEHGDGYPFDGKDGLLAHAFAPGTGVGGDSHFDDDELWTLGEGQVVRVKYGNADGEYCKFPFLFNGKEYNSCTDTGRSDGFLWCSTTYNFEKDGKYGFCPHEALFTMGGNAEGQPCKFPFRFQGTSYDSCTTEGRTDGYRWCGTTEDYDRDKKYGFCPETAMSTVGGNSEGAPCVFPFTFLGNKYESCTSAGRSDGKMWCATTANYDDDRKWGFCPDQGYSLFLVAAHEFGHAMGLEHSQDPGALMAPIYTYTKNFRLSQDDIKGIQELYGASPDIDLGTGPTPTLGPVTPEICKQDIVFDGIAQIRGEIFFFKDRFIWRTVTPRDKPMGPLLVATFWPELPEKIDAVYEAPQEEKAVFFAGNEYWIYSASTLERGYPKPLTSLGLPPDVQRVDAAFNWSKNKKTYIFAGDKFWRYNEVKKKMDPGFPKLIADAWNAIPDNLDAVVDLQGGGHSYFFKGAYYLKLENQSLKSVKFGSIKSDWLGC
- protocol_details: biochemical
- assay_setup: recombinant human MMP-2, MCA peptide substrate 4 μM, pH 7.5, room temperature; read-out: MMP-2 IC50
Would you mind telling me the reported pIC50 of each entry?
Give bare numbers, as −log10 of the molar value.

These solved cases illustrate the format of a correct answer.
compound: CC1CC(C)CN(C(=O)C2CCN(c3ccc(S(=O)(=O)C4(C(=O)NO)CCN(C(=O)CN5CCC(O)CC5)CC4)cc3)CC2)C1 (stereo not drawn)
quantity_name: pIC50
measured_result: 5.15
--
compound: O=C(Nc1cccc(F)c1)C1CCN(c2ccc(S(=O)(=O)C3(C(=O)NO)CCOCC3)cc2)CC1
quantity_name: pIC50
measured_result: 6.57
--
compound: O=C(c1ccco1)N1CCC(C(=O)NO)(S(=O)(=O)c2ccc(N3CCC(OCc4ccc(F)cc4)CC3)cc2)CC1
quantity_name: pIC50
measured_result: 7.10

Please examine the following record next.
Param readout= pIC50; system= MMP-2 (Homo sapiens, UniProt P08253); entry= CCCCCC(=O)C1CCN(c2ccc(S(=O)(=O)C3(C(=O)NO)CCOCC3)cc2)CC1 ; returns value.
7.70
